What pEC50 was measured for each of the following?
system: JAK-STAT signalling in HeLa cells; test: JAK-STAT signalling assay (OSM-triggered pSTAT1(2)-luciferase reporter in HeLa cells); type: cell-based; details: Homo sapiens; HeLa cells, OSM-triggered pSTAT1(2)-luciferase reporter; read-out: STAT signalling EC50
pEC50: −log10 of the molar value.

QUERY: For the compound shown here, Cc1ccc(COc2ccc(-c3cccc4nc(NC(=O)C5CC5)nn34)cc2)cn1 , give the reported pEC50.
RESULT: 6.30 to 7.00

QUERY: # pEC50 lookup, item O=C(Nc1nc2cccc(-c3ccc(CN4CCC(F)(F)CC4)cc3)n2n1)C1CC1
RESULT: 6.00 to 6.30

QUERY: Using the record for COc1c(F)ccc(NCc2ccc(-c3cccc4nc(NC(=O)C5CC5)nn34)cc2)c1F , report its pEC50.
RESULT: 6.30 to 7.00

QUERY: Which pEC50 value belongs to O=C(Cc1ccc(-c2cccc3nc(NC(=O)C4CC4)nn23)cc1)Nc1cccnc1 ?
RESULT: < 6.00

QUERY: Entry O=C(Nc1nc2cccc(-c3ccc(C(=O)N4CCC(F)CC4)cc3)n2n1)C1CC1 : reported pEC50 = ?
RESULT: 6.00 to 6.30

QUERY: Sample O=C(Nc1nc2cccc(-c3ccc(CNc4ccon4)cc3)n2n1)C1CC1 — what was its pEC50?
RESULT: 6.30 to 7.00

QUERY: Recorded pEC50 of O=C(N[C@@H]1CCN(Cc2ccccc2)C1)c1ccc(-c2cccc3nc(NC(=O)C4CC4)nn23)cc1 , please.
RESULT: < 6.00

QUERY: Look at this compound and give its reported pEC50. O=C(Nc1nc2cccc(-c3ccc(C(=O)N4CCCC4)cc3)n2n1)C1CC1
RESULT: < 6.00
